Details: 333.15 K, Pendant drop shape
# Lookup of reported surface tension liquid-gas keyed by entry
Numbers only; they are read as mN/m.

{"columns": ["MOLECULE", "surface tension liquid-gas [mN/m]"],
 "data": [
  ["C1CCC2=NCCC[NH+]2CC1.CS(=O)(=O)[O-] [1,8-diazabicyclo[5.4.0]undec-7-enium methanesulfonate]", 38.79],
  ["C1CCC2=[NH+]CCCN2CC1.O=S(=O)([O-])C(F)(F)F", 28.31],
  ["C1CCC2=[NH+]CCCN2CC1.CC(=O)[O-] [2,3,4,6,7,8,9,10-octahydropyrimido[1,2-a]azepinium acetate]", 32.38]
]}

Continue with the molecule presented below.
surface tension liquid-gas lookup needed for C1CCC2=NCCC[NH+]2CC1.O=C([O-])C(F)(F)F [1,8-diazabicyclo[5.4.0]undec-7-enium trifluoroacetate] , thanks.
30.65

====

Conditions: 323.15 K, Pendant drop shape
# Lookup of reported surface tension liquid-gas keyed by entry
Numbers only; they are read as mN/m.

# count of solved cases: 3
{"columns": ["COMPOUND", "surface tension liquid-gas / mN/m"],
 "data": [
  ["C1CCC2=[NH+]CCCN2CC1.O=S(=O)([O-])C(F)(F)F", 28.83],
  ["C1CCC2=NCCC[NH+]2CC1.O=C([O-])C(F)(F)F [1,8-diazabicyclo[5.4.0]undec-7-enium trifluoroacetate]", 31.05],
  ["C1CCC2=[NH+]CCCN2CC1.CC(=O)[O-] [2,3,4,6,7,8,9,10-octahydropyrimido[1,2-a]azepinium acetate]", 33.47]
]}

Continue with the compound presented below.
surface tension liquid-gas lookup needed for C1CCC2=NCCC[NH+]2CC1.CS(=O)(=O)[O-] [1,8-diazabicyclo[5.4.0]undec-7-enium methanesulfonate] , thanks.
39.58

====

Conditions: 313.15 K, Pendant drop shape
# Lookup of reported surface tension liquid-gas keyed by entry
Numbers only; they are read as mN/m.

# count of solved cases: 2
{"columns": ["COMPOUND", "surface tension liquid-gas / mN/m"],
 "data": [
  ["C1CCC2=NCCC[NH+]2CC1.O=C([O-])C(F)(F)F [1,8-diazabicyclo[5.4.0]undec-7-enium trifluoroacetate]", 31.52],
  ["C1CCC2=[NH+]CCCN2CC1.O=S(=O)([O-])C(F)(F)F", 29.27]
]}

surface tension liquid-gas lookup needed for C1CCC2=NCCC[NH+]2CC1.CS(=O)(=O)[O-] [1,8-diazabicyclo[5.4.0]undec-7-enium methanesulfonate] , thanks.
40.49

surface tension liquid-gas lookup needed for C1CCC2=[NH+]CCCN2CC1.CC(=O)[O-] [2,3,4,6,7,8,9,10-octahydropyrimido[1,2-a]azepinium acetate] , thanks.
34.6

====

Conditions: 303.15 K, Pendant drop shape
ENDPOINT: surface tension liquid-gas (mN/m)
Numbers only; they are read as mN/m.

# count of solved cases: 3
{"columns": ["COMPOUND", "surface tension liquid-gas / mN/m"],
 "data": [
  ["C1CCC2=[NH+]CCCN2CC1.CC(=O)[O-] [2,3,4,6,7,8,9,10-octahydropyrimido[1,2-a]azepinium acetate]", 35.94],
  ["C1CCC2=[NH+]CCCN2CC1.O=S(=O)([O-])C(F)(F)F", 29.8],
  ["C1CCC2=NCCC[NH+]2CC1.O=C([O-])C(F)(F)F [1,8-diazabicyclo[5.4.0]undec-7-enium trifluoroacetate]", 31.98]
]}

Continue with the compound presented below.
surface tension liquid-gas lookup needed for C1CCC2=NCCC[NH+]2CC1.CS(=O)(=O)[O-] [1,8-diazabicyclo[5.4.0]undec-7-enium methanesulfonate] , thanks.
41.35
